Listing of entries alongside the reported IC50.
- Tested on: 134 cancer cell lines
- protocol-text: Cell viability assay (ATPlite, 72 hours), IC50 on cancer cell line panel
- assay-setup: Homo sapiens, SW480, read-out: IC50 in cell proliferation assay
measurement-kind: IC50

1. C[C@H]1Oc2cc(cnc2N)-c2c(nn(C)c2C#N)CN(C)C(=O)c2ccc(F)cc21 ... > 31.6 µM
2. COc1cc(N2CCC(N3CCN(C)CC3)CC2)ccc1Nc1ncc(Cl)c(Nc2ccccc2P(C)(C)=O)n1 ... 1.09 µM
3. CC#CC(=O)N1CCC[C@H]1c1nc(-c2ccc(C(=O)Nc3ccccn3)cc2)c2c(N)nccn12 ... > 31.6 µM

----------
- Tested on: 134 cancer cell lines
- protocol-text: Cell viability assay (ATPlite, 72 hours), IC50 on cancer cell line panel
- assay-setup: Homo sapiens, A-375, read-out: IC50 in cell proliferation assay, cell line A-375 (BRAF p.V600E)
Response field label: string, one of TRUE (IC50 strictly below 3 µM) or FALSE.

1. CCc1nc(C(N)=O)c(Nc2ccc(N3CCC(N4CCN(C)CC4)CC3)c(OC)c2)nc1NC1CCOCC1 ... TRUE
2. C[C@H](Nc1ncnc2nc[nH]c12)c1cc2cccc(Cl)c2c(=O)n1-c1ccccc1 ... FALSE
3. CC(C)(C)c1nc(-c2cccc(NS(=O)(=O)c3c(F)cccc3F)c2F)c(-c2ccnc(N)n2)s1 ... TRUE
4. Cc1nc(NC(=O)N2CCC[C@H]2C(N)=O)sc1-c1ccnc(C(C)(C)C(F)(F)F)c1 ... FALSE
5. COc1cc2ncnc(Nc3ccc(F)c(Cl)c3)c2cc1NC(=O)/C=C/CN1CCCCC1 ... FALSE

----------
- tgt: panel of 255 wild-type kinases (Homo sapiens)
- protocol-text: Kinase panel profiling at 1 µmol/L (MSA or IMAP), percentage inhibition
- Type: biochemical
- assay-setup: MARK3; 1 µmol/L single concentration; read-out: %-inhibition, MARK3
Binary classification by inhibition at 1 µM, with 10% as an inclusive lower bound for label 1; all other cases are label 0.

1) CO[C@]1(C(=O)N[C@@H](C)c2ccc(-n3cc(F)cn3)nc2)CC[C@H](c2nc(C)cc(Nc3cc(C)[nH]n3)n2)CC1 ... label 0
2) CN1CCN(c2ccc(C(=O)Nc3n[nH]c4ccc(Cc5cc(F)cc(F)c5)cc34)c(NC3CCOCC3)c2)CC1 ... label 1
3) COC(=O)N[C@@H](C)CNc1nccc(-c2cn(C(C)C)nc2-c2cc(Cl)cc(NS(C)(=O)=O)c2F)n1 ... label 0
4) CCN1CCN(c2ccc(Nc3cc(N(C)C(=O)Nc4c(Cl)c(OC)cc(OC)c4Cl)ncn3)cc2)CC1 ... label 0
5) CCc1nc(C(N)=O)c(Nc2ccc(N3CCC(N4CCN(C)CC4)CC3)c(OC)c2)nc1NC1CCOCC1 ... label 1
6) C=CC(=O)N1CCC([C@@H]2CCNc3c(C(N)=O)c(-c4ccc(Oc5ccccc5)cc4)nn32)CC1 ... label 0
7) Cn1cc(-c2cc3c(N4CCN(c5ncc([C@@](C)(N)c6ccc(F)cc6)cn5)CC4)ncnn3c2)cn1 ... label 0
8) Cn1cnc2c(F)c(Nc3ccc(Br)cc3Cl)c(C(=O)NOCCO)cc21 ... label 0
9) C[C@H]1Oc2cc(cnc2N)-c2c(nn(C)c2C#N)CN(C)C(=O)c2ccc(F)cc21 ... label 1
10) COc1ccc(CN2C3CC2CN(c2ccc(-c4cc(OCC(C)(C)O)cn5ncc(C#N)c45)cn2)C3)cn1 ... label 1
11) CCn1c(=O)c(-c2cc(NC(=O)Nc3ccccc3)c(F)cc2Br)cc2cnc(NC)cc21 ... label 0
12) Cc1nc(NC(=O)N2CCC[C@H]2C(N)=O)sc1-c1ccnc(C(C)(C)C(F)(F)F)c1 ... label 1
13) Cc1cc(Nc2ncnc3ccc(NC4=NC(C)(C)CO4)cc23)ccc1Oc1ccn2ncnc2c1 ... label 0
14) C[C@H](Nc1ncnc2nc[nH]c12)c1cc2cccc(Cl)c2c(=O)n1-c1ccccc1 ... label 1

----------
- tgt: panel of 255 wild-type kinases (Homo sapiens)
- protocol-text: Kinase panel profiling at 1 µmol/L (MSA or IMAP), percentage inhibition
- Assay type: biochemical
- assay-setup: kinase FER; 1 µmol/L single concentration; read-out: %-inhibition at 1 µmol/L, FER
measurement-kind: inhibition at 1 µM (%)

1) Cn1cc(-c2cc3c(N4CCN(c5ncc([C@@](C)(N)c6ccc(F)cc6)cn5)CC4)ncnn3c2)cn1 [avapritinib] ... 1.71
2) COC(=O)N[C@@H](C)CNc1nccc(-c2cn(C(C)C)nc2-c2cc(Cl)cc(NS(C)(=O)=O)c2F)n1 [encorafenib] ... 5
3) Cn1cnc2c(F)c(Nc3ccc(Br)cc3F)c(C(=O)NOCCO)cc21 [binimetinib] ... 4.71
4) COc1cc2ncnc(Nc3ccc(F)c(Cl)c3)c2cc1NC(=O)/C=C/CN1CCCCC1 [dacomitinib] ... 6.35
5) FC(F)(F)c1ccc(CNc2ccc(Cc3c[nH]c4ncc(Cl)cc34)cn2)cn1 [pexidartinib] ... 21
6) CCn1c(=O)c(-c2cc(NC(=O)Nc3ccccc3)c(F)cc2Br)cc2cnc(NC)cc21 [ripretinib] ... 32
7) Cc1cc(Nc2ncnc3ccc(NC4=NC(C)(C)CO4)cc23)ccc1Oc1ccn2ncnc2c1 [tucatinib] ... 1.35
8) CCc1nc(C(N)=O)c(Nc2ccc(N3CCC(N4CCN(C)CC4)CC3)c(OC)c2)nc1NC1CCOCC1 [gilteritinib] ... 99

----------
- tgt: panel of 255 wild-type kinases (Homo sapiens)
- protocol-text: Kinase panel profiling at 1 µmol/L (MSA or IMAP), percentage inhibition
- Format: biochemical
- assay-setup: kinase HPK1; 1 µmol/L single concentration; read-out: %-inhibition at 1 µmol/L, HPK1
Would you mind labelling by inhibition at 1 µM? At or over 20% is MET, under is NOT MET.

1. CCN1C(=O)N(c2c(F)c(OC)cc(OC)c2F)Cc2cnc3[nH]c(CN4CCOCC4)cc3c21 ... MET
2. CCN1CCN(c2ccc(Nc3cc(N(C)C(=O)Nc4c(Cl)c(OC)cc(OC)c4Cl)ncn3)cc2)CC1 ... MET
3. C=CC(=O)N1CCC([C@@H]2CCNc3c(C(N)=O)c(-c4ccc(Oc5ccccc5)cc4)nn32)CC1 ... NOT MET
4. O=C(Nc1cnn2ccc(N3CCC[C@@H]3c3cc(F)ccc3F)nc12)N1CC[C@H](O)C1 ... NOT MET
5. Cn1cc(-c2cc3c(N4CCN(c5ncc([C@@](C)(N)c6ccc(F)cc6)cn5)CC4)ncnn3c2)cn1 ... NOT MET
6. COc1ccc(CN2C3CC2CN(c2ccc(-c4cc(OCC(C)(C)O)cn5ncc(C#N)c45)cn2)C3)cn1 ... NOT MET
7. Cc1cc(Nc2ncnc3ccc(NC4=NC(C)(C)CO4)cc23)ccc1Oc1ccn2ncnc2c1 ... NOT MET
8. Cn1cnc2c(F)c(Nc3ccc(Br)cc3Cl)c(C(=O)NOCCO)cc21 ... NOT MET
9. CO[C@]1(C(=O)N[C@@H](C)c2ccc(-n3cc(F)cn3)nc2)CC[C@H](c2nc(C)cc(Nc3cc(C)[nH]n3)n2)CC1 ... MET

----------
- tgt: panel of 255 wild-type kinases (Homo sapiens, UniProt Q8TD19)
- Sequence (Q8TD19 whole entry): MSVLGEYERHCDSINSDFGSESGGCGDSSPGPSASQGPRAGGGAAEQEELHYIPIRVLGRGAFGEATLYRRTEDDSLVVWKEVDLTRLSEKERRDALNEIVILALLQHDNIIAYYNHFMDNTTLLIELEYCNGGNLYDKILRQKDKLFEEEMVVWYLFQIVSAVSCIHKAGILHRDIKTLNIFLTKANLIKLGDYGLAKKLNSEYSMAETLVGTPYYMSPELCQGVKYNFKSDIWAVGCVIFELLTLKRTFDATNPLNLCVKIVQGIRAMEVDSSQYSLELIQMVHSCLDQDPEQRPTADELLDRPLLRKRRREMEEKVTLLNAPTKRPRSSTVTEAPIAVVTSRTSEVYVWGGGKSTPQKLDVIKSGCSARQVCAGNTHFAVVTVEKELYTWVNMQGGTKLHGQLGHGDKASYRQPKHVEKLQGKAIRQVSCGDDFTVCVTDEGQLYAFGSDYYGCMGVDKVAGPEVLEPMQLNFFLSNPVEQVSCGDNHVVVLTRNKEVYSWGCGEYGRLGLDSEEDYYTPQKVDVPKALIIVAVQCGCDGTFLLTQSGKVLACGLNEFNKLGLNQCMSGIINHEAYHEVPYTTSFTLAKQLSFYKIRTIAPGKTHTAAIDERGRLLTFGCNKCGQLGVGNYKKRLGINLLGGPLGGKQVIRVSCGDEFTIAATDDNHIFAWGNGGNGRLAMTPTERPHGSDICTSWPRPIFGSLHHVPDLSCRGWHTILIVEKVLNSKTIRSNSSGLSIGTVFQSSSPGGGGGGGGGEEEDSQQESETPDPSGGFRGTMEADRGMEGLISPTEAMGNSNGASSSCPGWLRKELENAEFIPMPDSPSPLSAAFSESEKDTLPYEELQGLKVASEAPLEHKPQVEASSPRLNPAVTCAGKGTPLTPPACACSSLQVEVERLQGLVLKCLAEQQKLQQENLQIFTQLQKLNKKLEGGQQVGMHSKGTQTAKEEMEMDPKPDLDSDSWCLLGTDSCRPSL
- protocol-text: Kinase panel profiling at 1 µmol/L (MSA or IMAP), percentage inhibition
- Format: biochemical
- assay-setup: NEK9; 1 µmol/L single concentration; read-out: %-inhibition, NEK9
measurement-kind: inhibition at 1 µM

1. Cn1cnc2c(F)c(Nc3ccc(Br)cc3Cl)c(C(=O)NOCCO)cc21 [selumetinib] ... 0.727%
2. O=C(Nc1cnn2ccc(N3CCC[C@@H]3c3cc(F)ccc3F)nc12)N1CC[C@H](O)C1 [larotrectinib] ... -4.43%
3. CCN1CCN(c2ccc(Nc3cc(N(C)C(=O)Nc4c(Cl)c(OC)cc(OC)c4Cl)ncn3)cc2)CC1 [infigratinib] ... 10%
4. C[C@H](Nc1ncnc2nc[nH]c12)c1cc2cccc(Cl)c2c(=O)n1-c1ccccc1 [duvelisib] ... 1.7%

----------
- tgt: UniProtKB Q9UHD2
- Sequence (Q9UHD2 whole entry): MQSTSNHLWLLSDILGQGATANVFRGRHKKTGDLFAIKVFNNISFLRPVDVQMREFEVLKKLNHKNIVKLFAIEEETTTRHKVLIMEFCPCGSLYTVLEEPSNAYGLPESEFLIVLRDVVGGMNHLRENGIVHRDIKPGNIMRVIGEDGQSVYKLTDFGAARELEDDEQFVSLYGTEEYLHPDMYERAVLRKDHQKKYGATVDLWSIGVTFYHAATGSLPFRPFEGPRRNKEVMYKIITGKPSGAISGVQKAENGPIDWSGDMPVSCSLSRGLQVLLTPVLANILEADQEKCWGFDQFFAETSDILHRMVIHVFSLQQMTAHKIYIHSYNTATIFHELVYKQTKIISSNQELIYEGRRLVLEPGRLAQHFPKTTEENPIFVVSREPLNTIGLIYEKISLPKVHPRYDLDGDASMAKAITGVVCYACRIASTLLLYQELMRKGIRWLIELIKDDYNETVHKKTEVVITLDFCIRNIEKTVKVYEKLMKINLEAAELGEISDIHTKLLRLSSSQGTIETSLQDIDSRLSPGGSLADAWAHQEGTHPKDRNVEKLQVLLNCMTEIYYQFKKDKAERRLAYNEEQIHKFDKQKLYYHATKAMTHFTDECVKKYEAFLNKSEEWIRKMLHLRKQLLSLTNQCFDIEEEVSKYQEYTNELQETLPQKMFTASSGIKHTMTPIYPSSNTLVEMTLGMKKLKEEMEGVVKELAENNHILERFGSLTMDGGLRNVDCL
- protocol-text: Kinase panel profiling at 1 µmol/L (MSA or IMAP), percentage inhibition
- Assay type: biochemical
- assay-setup: kinase TBK1; 1 µmol/L single concentration; read-out: %-inhibition at 1 µmol/L, TBK1
measurement-kind: inhibition at 1 µM (%)

1. CCc1nc(C(N)=O)c(Nc2ccc(N3CCC(N4CCN(C)CC4)CC3)c(OC)c2)nc1NC1CCOCC1 [gilteritinib] ... 24
2. C[C@H]1Oc2cc(cnc2N)-c2c(nn(C)c2C#N)CN(C)C(=O)c2ccc(F)cc21 [lorlatinib] ... -1.23
3. CCN1C(=O)N(c2c(F)c(OC)cc(OC)c2F)Cc2cnc3[nH]c(CN4CCOCC4)cc3c21 [pemigatinib] ... 0
4. FC(F)(F)c1ccc(CNc2ccc(Cc3c[nH]c4ncc(Cl)cc34)cn2)cn1 [pexidartinib] ... 6
5. C[C@H](Nc1ncnc2nc[nH]c12)c1cc2cccc(Cl)c2c(=O)n1-c1ccccc1 [duvelisib] ... -2.46
6. Cc1cc(Nc2ncnc3ccc(NC4=NC(C)(C)CO4)cc23)ccc1Oc1ccn2ncnc2c1 [tucatinib] ... -3
7. CO[C@]1(C(=O)N[C@@H](C)c2ccc(-n3cc(F)cn3)nc2)CC[C@H](c2nc(C)cc(Nc3cc(C)[nH]n3)n2)CC1 [pralsetinib] ... -0.586
8. COc1cc2ncnc(Nc3ccc(F)c(Cl)c3)c2cc1NC(=O)/C=C/CN1CCCCC1 [dacomitinib] ... 17
9. C=CC(=O)N1CCC([C@@H]2CCNc3c(C(N)=O)c(-c4ccc(Oc5ccccc5)cc4)nn32)CC1 [zanubrutinib] ... 0.115
10. COC(=O)N[C@@H](C)CNc1nccc(-c2cn(C(C)C)nc2-c2cc(Cl)cc(NS(C)(=O)=O)c2F)n1 [encorafenib] ... 1.21
11. CCN1CCN(c2ccc(Nc3cc(N(C)C(=O)Nc4c(Cl)c(OC)cc(OC)c4Cl)ncn3)cc2)CC1 [infigratinib] ... -4
12. CN1CCN(c2ccc(C(=O)Nc3n[nH]c4ccc(Cc5cc(F)cc(F)c5)cc34)c(NC3CCOCC3)c2)CC1 [entrectinib] ... 8
13. Cc1nc(NC(=O)N2CCC[C@H]2C(N)=O)sc1-c1ccnc(C(C)(C)C(F)(F)F)c1 [alpelisib] ... -2.72
14. CCn1c(=O)c(-c2cc(NC(=O)Nc3ccccc3)c(F)cc2Br)cc2cnc(NC)cc21 [ripretinib] ... 0.403
15. Cn1cc(-c2cc3c(N4CCN(c5ncc([C@@](C)(N)c6ccc(F)cc6)cn5)CC4)ncnn3c2)cn1 [avapritinib] ... -1.13

These data points were gathered from paper PMC9516332.
